- TEST: Human HepG2 cell viability assay in 384 well format
- Format: toxicity, cell-based
- Design: dose 125 nL, time 70.5 hour; concentration not given beside the values
- CONDITION: HepG2 cells, read-out: Inhibition
Classification field: y = cytotoxicity at 70.5 h at or over -10%; n = cytotoxicity at 70.5 h under -10%.

Would you please look over these solved cases?
Exercise: Please tell me: is the compound C[S+]([O-])c1nncn1CC(=O)c1ccc(Cl)c(Cl)c1 (stereo unspecified) at or over -10% in terms of cytotoxicity at 70.5 h?
Key: y

Exercise: Please tell me: is the compound Cc1ccc(O)c(C(=O)NCCCS(=O)(=O)Cc2ccccc2)c1 at or over -10% in terms of cytotoxicity at 70.5 h?
Key: n

Exercise: Please tell me: is the compound CO[C@@H]1CCN(Cc2nccs2)C[C@@H]1Cc1ccccc1 at or over -10% in terms of cytotoxicity at 70.5 h?
Key: n

Exercise: Please tell me: is the compound CC(=O)c1c(F)cccc1NCC(O)C(C)(C)C (stereo unspecified) at or over -10% in terms of cytotoxicity at 70.5 h?
Key: n

Exercise: Please tell me: is the compound O=C(c1ccccn1)N1CCC(Oc2cccnc2)CC1 at or over -10% in terms of cytotoxicity at 70.5 h?
Key: y

Moving on to the next compound.
Exercise: Please tell me: is the compound Cc1ccc([C@@H]2CN(C(=O)c3cc(C)n[nH]3)C[C@H]2NC(=O)C2CC2)cc1 at or over -10% in terms of cytotoxicity at 70.5 h?
Key: y
